Value source: patent US4470976A

molecular target: activated human C1 (Homo sapiens, UniProt P09871); test: Test Code 026 (C1 inhibitor); type: biochemical; details: serial dilution assay, twofold dilutions; higher well number indicates higher activity
measured-parameter: In vitro Activity C1 026 Wells
Kindly write the number and append the unit.

GET /value?item= O=S(=O)([O-])OC[C@H]1O[C@@H](Sc2ccc(OS(=O)(=O)[O-])cc2)[C@H](OS(=O)(=O)[O-])[C@@H](OS(=O)(=O)[O-])[C@@H]1O[C@H]1O[C@H](COS(=O)(=O)[O-])[C@@H](OS(=O)(=O)[O-])[C@H](OS(=O)(=O)[O-])[C@H]1OS(=O)(=O)[O-].[Na+].[Na+].[Na+].[Na+].[Na+].[Na+].[Na+].[Na+] &field=In vitro Activity C1 026 Wells returns 8 Wells

In vitro Activity C1 026 Wells measured on O=S(=O)([O-])OC[C@H]1O[C@@H](Sc2cccc(C(F)(F)F)c2)[C@H](OS(=O)(=O)[O-])[C@@H](OS(=O)(=O)[O-])[C@@H]1O[C@H]1O[C@H](COS(=O)(=O)[O-])[C@@H](OS(=O)(=O)[O-])[C@H](OS(=O)(=O)[O-])[C@H]1OS(=O)(=O)[O-].[Na+].[Na+].[Na+].[Na+].[Na+].[Na+].[Na+] = 5 Wells

Per the records, this molecule ( Nc1ccc(S[C@@H]2O[C@H](COS(=O)(=O)[O-])[C@@H](O[C@H]3O[C@H](COS(=O)(=O)[O-])[C@@H](OS(=O)(=O)[O-])[C@H](OS(=O)(=O)[O-])[C@H]3OS(=O)(=O)[O-])[C@H](OS(=O)(=O)[O-])[C@H]2OS(=O)(=O)[O-])cc1.[Na+].[Na+].[Na+].[Na+].[Na+].[Na+].[Na+] ) has In vitro Activity C1 026 Wells equal to 9 Wells

====

biological target: activated human C1 (Homo sapiens); test: Test Code 026 (C1 inhibitor); type: biochemical; settings: serial dilution assay, twofold dilutions; higher well number indicates higher activity
For each record, write down the corresponding In vitro Activity C1 026 Wells.
# unit: Wells | format: bare number

Entry O=S(=O)([O-])OC[C@H]1O[C@@H](Sc2ccc(F)cc2)[C@H](OS(=O)(=O)[O-])[C@@H](OS(=O)(=O)[O-])[C@@H]1O[C@H]1O[C@H](COS(=O)(=O)[O-])[C@@H](OS(=O)(=O)[O-])[C@H](OS(=O)(=O)[O-])[C@H]1OS(=O)(=O)[O-].[Na+].[Na+].[Na+].[Na+].[Na+].[Na+].[Na+] , In vitro Activity C1 026 Wells reported as 8

# In vitro Activity C1 026 Wells of O=S(=O)(O)OC[C@H]1O[C@@H]([S+]([O-])c2cc(OS(=O)(=O)O)ccc2OS(=O)(=O)O)[C@H](OS(=O)(=O)O)[C@@H](OS(=O)(=O)O)[C@@H]1O[C@H]1O[C@H](COS(=O)(=O)O)[C@@H](OS(=O)(=O)O)[C@H](OS(=O)(=O)O)[C@H]1OS(=O)(=O)O (stereo partly drawn) = 11

Briefly, In vitro Activity C1 026 Wells measured for COc1ccc(S[C@@H]2O[C@H](COS(=O)(=O)[O-])[C@@H](O[C@H]3O[C@H](COS(=O)(=O)[O-])[C@@H](OS(=O)(=O)[O-])[C@H](OS(=O)(=O)[O-])[C@H]3OS(=O)(=O)[O-])[C@H](OS(=O)(=O)[O-])[C@H]2OS(=O)(=O)[O-])cc1.[Na+].[Na+].[Na+].[Na+].[Na+].[Na+].[Na+] : 4

====

target: activated human C1 (Homo sapiens); experiment: Test Code 026 (C1 inhibitor); assay type: biochemical; conditions: serial dilution assay, twofold dilutions; higher well number indicates higher activity
So I've got a bunch of molecules here, and I need their In vitro Activity C1 026 Wells values.
Number only, in Wells; omit the unit.

In vitro Activity C1 026 Wells reading for O=C([O-])c1ccccc1S[C@@H]1O[C@H](COS(=O)(=O)[O-])[C@@H](O[C@H]2O[C@H](COS(=O)(=O)[O-])[C@@H](OS(=O)(=O)[O-])[C@H](OS(=O)(=O)[O-])[C@H]2OS(=O)(=O)[O-])[C@H](OS(=O)(=O)[O-])[C@H]1OS(=O)(=O)[O-].[Na+].[Na+].[Na+].[Na+].[Na+].[Na+].[Na+].[Na+] : 8

For record O=S(=O)([O-])OC[C@H]1O[C@@H](Sc2cc(OS(=O)(=O)[O-])ccc2OS(=O)(=O)[O-])[C@H](OS(=O)(=O)[O-])[C@@H](OS(=O)(=O)[O-])[C@@H]1O[C@H]1O[C@H](COS(=O)(=O)[O-])[C@@H](OS(=O)(=O)[O-])[C@H](OS(=O)(=O)[O-])[C@H]1OS(=O)(=O)[O-].[Na+].[Na+].[Na+].[Na+].[Na+].[Na+].[Na+].[Na+].[Na+] the listed In vitro Activity C1 026 Wells is 9

The molecule listed as O=S(=O)(O)OC[C@H]1O[C@@H](Sc2cccc(S)c2)[C@H](OS(=O)(=O)O)[C@@H](OS(=O)(=O)O)[C@@H]1O[C@H]1O[C@H](COS(=O)(=O)O)[C@@H](OS(=O)(=O)O)[C@H](OS(=O)(=O)O)[C@H]1OS(=O)(=O)O.[Na+].[Na+].[Na+].[Na+].[Na+].[Na+].[Na+].[Na+] has a reported In vitro Activity C1 026 Wells of 11

Reported In vitro Activity C1 026 Wells of CCOC(=O)C(=O)Nc1ccc(S[C@@H]2O[C@H](COS(=O)(=O)O)[C@@H](O[C@H]3O[C@H](COS(=O)(=O)O)[C@@H](OS(=O)(=O)O)[C@H](OS(=O)(=O)O)[C@H]3OS(=O)(=O)O)[C@H](OS(=O)(=O)O)[C@H]2OS(=O)(=O)O)cc1 : 8
